experiment: qHTS assay to identify small molecule agonists of the sonic hedgehog signaling (Shh) pathway - cell viability counter screen (AID 1259366); settings: NIH/3T3 Gli1-Luc viability, CellTiter-Fluor, 24 h; series mostly up to 92.4 µM; further: nearly all actives have a fitted effect of over 50% in size
Inconclusive results are not listed. Calls of active or inactive are those of the source. The call rests on the fitted dose curve; in most records, active means well fitted cell-killing curve with a large enough effect in the repeat runs; inconclusive means weak or mixed curves, or effect the other way; inactive means flat fitted curve, though single readings scatter.
Hello, when you answer, please use one of the following outcomes: T for active, F for inactive

So what was the verdict on CN(C)c1ccc(N)cc1 in this test?
T

So what was the verdict on Cc1cnc2c(C(=O)O)c(Cl)ccc2c1 in this test?
F

So what was the verdict on CCCCCCCc1ccc(O)cc1 in this test?
F
